System: Echinochloa crus-galli (ECHCG)
TEST_DETAILS: Post-Emergence Test (herbicidal, glasshouse pots)
Format: in vivo
REPORTED_CONDITIONS: rate 1000 g/ha; evaluated after 13 days
Recorded Post-Emergence Test ECHCG percentage damage (five-point scale) values for a group of molecules are listed next.

Known Post-Emergence Test ECHCG percentage damage (five-point scale) results, listed for orientation:
MOLECULE	RESULT
CCn1c(Nc2ccc(C)c(C(F)(F)F)c2)cc(=O)c(C(=O)O)c1-c1ccc(Cl)c(Cl)c1 [Compound 23]	0
CCn1c(Oc2ccc(OC)c(OC)c2)cc(=O)c(C(=O)O)c1-c1ccc(Cl)c(Cl)c1 [Compound 21]	1 (1=0-20%)
CCn1c(Oc2ccc(OC(F)(F)F)cc2)cc(=O)c(C(=O)O)c1-c1ccc(Cl)c(Cl)c1 [Compound 20]	4 (4=61-80%)
CCn1c(Oc2ccc(F)cc2)cc(=O)c(C(=O)O)c1-c1ccc(Cl)c(Cl)c1 [Compound 4]	4 (4=61-80%)
CCn1c(Oc2ccc(F)c(F)c2)cc(=O)c(C(=O)O)c1-c1ccc(Cl)c(Cl)c1 [Compound 28]	4 (4=61-80%)

Problem: Name the recorded Post-Emergence Test ECHCG percentage damage (five-point scale) for CCn1c(Oc2cccc(F)c2)cc(=O)c(C(=O)O)c1-c1ccc(Cl)c(Cl)c1 [Compound 12] .
Solution: 4 (4=61-80%)

Problem: Item CCn1c(Oc2cccnc2F)cc(=O)c(C(=O)O)c1-c1ccc(Cl)c(Cl)c1 [Compound 34] has what recorded Post-Emergence Test ECHCG percentage damage (five-point scale)?
Solution: 4 (4=61-80%)

Problem: Any idea what Post-Emergence Test ECHCG percentage damage (five-point scale) was measured for CCn1c(Oc2cccc(Cl)c2Cl)cc(=O)c(C(=O)O)c1-c1ccc(Cl)c(Cl)c1 [Compound 17] ?
Solution: 1 (1=0-20%)

Problem: Quick check: Post-Emergence Test ECHCG percentage damage (five-point scale) of CCn1c(Oc2cccc(Cl)c2)cc(=O)c(C(=O)O)c1-c1ccc(Cl)c(Cl)c1 [Compound 2] ?
Solution: 4 (4=61-80%)

Problem: Would you mind telling me what Post-Emergence Test ECHCG percentage damage (five-point scale) value was observed for CCn1c(Oc2cc(Cl)cc(OC)c2)cc(=O)c(C(=O)O)c1-c1ccc(Cl)c(Cl)c1 [Compound 25] ?
Solution: 0

====

Tested on: Amaranthus palmeri (AMAPA)
TEST_DETAILS: Post-Emergence Test (herbicidal, glasshouse pots)
Type: in vivo
REPORTED_CONDITIONS: rate 250 g/ha; evaluated after 13 days
Quick reference for Post-Emergence Test AMAPA percentage damage (five-point scale) among some compounds

// worked examples, Post-Emergence Test AMAPA percentage damage (five-point scale) included
COMPOUND	RESULT
CCn1c(Oc2ccnc(Cl)c2)cc(=O)c(C(=O)O)c1-c1ccc(Cl)c(Cl)c1 [Compound 54]	3 (3=41-60%)
CCn1c(Oc2ccc(F)nc2)cc(=O)c(C(=O)O)c1-c1ccc(Cl)c(Cl)c1 [Compound 52]	1 (1=0-20%)

Problem: // lookup Post-Emergence Test AMAPA percentage damage (five-point scale) for CCn1c(Oc2ccc(S(C)(=O)=O)cc2)cc(=O)c(C(=O)O)c1-c1ccc(Cl)c(Cl)c1 [Compound 40]
Solution: 2 (2=21-40%)

Problem: Any idea what Post-Emergence Test AMAPA percentage damage (five-point scale) was measured for CCn1c(Oc2ccc(Cl)cn2)cc(=O)c(C(=O)O)c1-c1ccc(Cl)c(Cl)c1 [Compound 38] ?
Solution: 4 (4=61-80%)
